- test_description: Toxicity liver stage against HepG2, at 10uM
- Type: cell-based
- Set-up: test concentration 10 uM, cell line HepG2-A16-CD81EGFP
- experimental_parameters: human, HepG2-A16-CD81EGFP cells; read-out: INHIBITION
Catalogue of cytotoxicity at 10 µM readings, one per entry.

>  <molecule>
COc1ccccc1C(=O)NC[C@H]1COCc2nc3c(C)cccc3n21

>  <output_unit>
%

>  <cytotoxicity at 10 µM>
0.331

$$$$
>  <molecule>
CCOC(CC)C(=O)NCc1cccc(N2CCCCC2=O)c1 (stereo unspecified)

>  <output_unit>
%

>  <cytotoxicity at 10 µM>
5.12

$$$$
>  <molecule>
CCCNC(=O)NC(=O)CN1C=Nc2ccccc2S1(=O)=O

>  <output_unit>
%

>  <cytotoxicity at 10 µM>
-3.12

$$$$
>  <molecule>
O=C(CCn1cncn1)NCC(c1ccco1)N1CCCC1 (stereo unspecified)

>  <output_unit>
%

>  <cytotoxicity at 10 µM>
-3.62

$$$$
>  <molecule>
CCC(CO)N(Cc1ccncc1)Cc1c[nH]nc1-c1ccc(F)cc1 (stereo unspecified)

>  <output_unit>
%

>  <cytotoxicity at 10 µM>
-5.5

$$$$
>  <molecule>
Cc1noc(C)c1CN1CCn2cc(CNC(=O)C3CCC3)nc2C1

>  <output_unit>
%

>  <cytotoxicity at 10 µM>
5.28

$$$$
